# TESTED TARGET: ORP1 (Homo sapiens, UniProt Q9BXW6)
# Construct: ORP1(534-950); host or cells: E. coli BL21(DE3)
# Sequence (Q9BXW6 534-950): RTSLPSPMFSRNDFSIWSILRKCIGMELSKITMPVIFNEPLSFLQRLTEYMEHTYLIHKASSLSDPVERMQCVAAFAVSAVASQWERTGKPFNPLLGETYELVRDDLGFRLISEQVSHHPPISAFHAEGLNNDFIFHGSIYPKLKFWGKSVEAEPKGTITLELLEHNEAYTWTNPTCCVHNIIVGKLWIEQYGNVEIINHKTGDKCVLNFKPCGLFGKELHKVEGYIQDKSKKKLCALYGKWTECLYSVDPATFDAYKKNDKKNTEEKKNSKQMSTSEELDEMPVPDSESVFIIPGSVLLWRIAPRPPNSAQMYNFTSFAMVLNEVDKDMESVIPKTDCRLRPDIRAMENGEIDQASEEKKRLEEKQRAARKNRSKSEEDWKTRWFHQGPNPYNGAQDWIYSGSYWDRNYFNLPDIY
# EXPERIMENT DESCRIPTION: Fluorescence polarisation (FP) competition with NBD-cholesterol, ORP1
# Assay type: binding
# TEST CONDITIONS: single dose, Dose = 10 µM
Label rule, in plain words: inhibition at 10 µM of 10% and up is y, under 10% is n.

Entry CC12CCC3CC1CCC21C(=Nc2ccc(NCc4ccccc4)cc21)O3 (centres unmarked) [Compound 19b] : is its inhibition at 10 µM no less than 10%?
y

Entry C[C@]12CC[C@@H](O)C[C@H]1CCc1c2[nH]c2c(F)cc(Cl)cc12 [Compound 10i] : is its inhibition at 10 µM no less than 10%?
y

Entry C[C@]12CC[C@@H]3C[C@H]1CC[C@@]21C(=Nc2ccc(F)cc21)O3 [Compound 15d] : is its inhibition at 10 µM no less than 10%?
y

Entry Cc1cc(C)c2c3c([nH]c2c1)[C@@]1(C)CC[C@@H](O)C[C@H]1CC3 [Compound 10j] : is its inhibition at 10 µM no less than 10%?
y

Entry CC12CCC3CC1CCC21C(=Nc2ccc(Br)cc21)O3 (single isomer, unassigned; (+)) [(+)-15b] : is its inhibition at 10 µM no less than 10%?
n

Others:
Entry Cc1c2c(nc3ccccc13)[C@@]1(C)CC[C@@H](O)C[C@H]1CC2 [Compound 2a] : is its inhibition at 10 µM no less than 10%?
y

Entry CC(C)(C)OC(=O)N1CCN(c2ccc3c(c2)C24CCC5CC(CCC52C)OC4=N3)CC1 (centres unmarked) [Compound 19e] : is its inhibition at 10 µM no less than 10%?
y

Entry C[C@]12CC[C@@H](O)C[C@H]1CCC[C@]21NC(=O)c2ccccc2N1 [Compound 5a] : is its inhibition at 10 µM no less than 10%?
n
